src = ChEMBL document CHEMBL4706645

Property: pEC50; scope: individual compounds
study-target: Aldehyde dehydrogenase, mitochondrial (Homo sapiens)
protocol: Allosteric activation of recombinant human full-length ALDH2 (18 to 517 residues) expressed in Escherichia coli using acetaldehyde as substrate measured after 3 hrs in presence of NAD+ by […]
In simple prose, pEC50 is minus the logarithm base ten of a concentration in moles per litre.

[
  {
    "substance-smiles": "O=C(NCc1ccc2c(c1)OCO2)c1c(Cl)cccc1Cl",
    "metric": "pEC50",
    "measured-number": 5.37
  }
]

Next item in the queue.
// pEC50 lookup, key: COc1ccc(CNc2ccc(N3CCOCC3)c(C(=O)NCC3CC3)c2)cc1F
4.75

----------
study-target: Aldehyde dehydrogenase, mitochondrial (Homo sapiens) (UniProt P05091)
Sequence (P05091 whole entry, the tested form may be a part): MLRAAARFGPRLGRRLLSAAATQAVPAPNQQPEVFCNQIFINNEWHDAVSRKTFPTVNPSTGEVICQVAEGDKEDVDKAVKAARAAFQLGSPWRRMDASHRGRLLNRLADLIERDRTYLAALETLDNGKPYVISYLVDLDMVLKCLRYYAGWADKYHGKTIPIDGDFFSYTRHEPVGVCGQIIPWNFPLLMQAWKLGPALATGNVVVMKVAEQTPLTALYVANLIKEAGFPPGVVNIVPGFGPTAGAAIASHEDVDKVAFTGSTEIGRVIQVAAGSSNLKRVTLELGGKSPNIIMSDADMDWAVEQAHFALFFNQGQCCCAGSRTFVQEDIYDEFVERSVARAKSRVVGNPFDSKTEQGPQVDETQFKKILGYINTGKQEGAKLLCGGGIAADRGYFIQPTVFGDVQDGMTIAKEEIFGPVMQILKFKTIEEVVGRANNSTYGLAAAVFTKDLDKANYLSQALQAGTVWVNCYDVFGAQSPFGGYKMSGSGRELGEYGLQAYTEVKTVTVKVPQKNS
protocol: Allosteric activation of recombinant human full-length ALDH2 (18 to 517 residues) expressed in Escherichia coli at 100 uM using acetaldehyde as substrate measured after 3 hrs in presence of NAD+ by […] relative to Alda-1
The source made the active and inactive calls. The calls are words filed in the database; no cut-off is given here.

[
  {
    "substance-smiles": "COc1ccc(CNc2ccc(N3CCC(F)(F)CC3)c(C(=O)NCC3CC3)c2)cc1F",
    "study-target": "Aldehyde dehydrogenase, mitochondrial (Homo sapiens) (UniProt P05091)",
    "fold change (FC)": "12%"
  },
  {
    "substance-smiles": "O=C(O)c1cc(NCc2ccc(Cl)c(Cl)c2)ccc1N1CCOCC1",
    "study-target": "Aldehyde dehydrogenase, mitochondrial (Homo sapiens) (UniProt P05091)",
    "fold change (FC)": "9%"
  },
  {
    "substance-smiles": "COc1ccc(C(=O)Nc2ccc(N3CCOCC3)c(C(=O)NCC3CC3)c2)cc1F",
    "study-target": "Aldehyde dehydrogenase, mitochondrial (Homo sapiens) (UniProt P05091)",
    "fold change (FC)": "inactive"
  },
  {
    "substance-smiles": "COc1ccc(CNc2ccc(N3CCC(F)CC3)c(C(=O)NCC3CC3)c2)cc1F",
    "study-target": "Aldehyde dehydrogenase, mitochondrial (Homo sapiens) (UniProt P05091)",
    "fold change (FC)": "inactive"
  }
]
